biological target: Tyrosyl-tRNA synthetase, putative (Trypanosoma cruzi (strain CL Brener)) (UniProt Q4DSP6); assay: Trypanosoma cruzi tyrosyl tRNA synthetase (TcYRS) SOP; format: functional; set-up: scale not given: direction of the effect not stated beside the values; details: 30 µM
Sequence (Q4DSP6 as listed by the source): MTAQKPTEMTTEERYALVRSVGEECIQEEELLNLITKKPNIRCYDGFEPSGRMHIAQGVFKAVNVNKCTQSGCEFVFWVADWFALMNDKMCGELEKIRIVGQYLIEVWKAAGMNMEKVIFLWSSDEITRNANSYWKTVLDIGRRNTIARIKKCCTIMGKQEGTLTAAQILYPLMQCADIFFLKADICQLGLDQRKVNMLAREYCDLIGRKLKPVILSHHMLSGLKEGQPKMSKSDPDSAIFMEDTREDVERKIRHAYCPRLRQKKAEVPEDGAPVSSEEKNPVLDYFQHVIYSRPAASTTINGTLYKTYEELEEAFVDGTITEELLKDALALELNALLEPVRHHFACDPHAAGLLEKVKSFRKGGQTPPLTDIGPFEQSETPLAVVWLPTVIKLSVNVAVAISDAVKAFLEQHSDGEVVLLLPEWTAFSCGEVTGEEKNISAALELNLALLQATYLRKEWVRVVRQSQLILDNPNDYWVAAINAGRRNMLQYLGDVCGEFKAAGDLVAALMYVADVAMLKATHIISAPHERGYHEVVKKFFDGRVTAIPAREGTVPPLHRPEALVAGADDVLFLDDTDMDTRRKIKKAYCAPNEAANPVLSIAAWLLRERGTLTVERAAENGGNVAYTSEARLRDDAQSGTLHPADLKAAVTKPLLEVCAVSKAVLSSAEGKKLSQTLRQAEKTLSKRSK
Note: every record was labeled by where its Percent Effect sits among bucket A (below 10%), bucket B (10% to below 20%), bucket C (20% or more)

In [3]: df
Out[3]:
                                    molecule                                    target  class_label
 0             CCSCCC(=O)Nc1ncn(Cc2cccnc2)n1  Tyrosyl-tRNA synthetase, putative (Trypanosoma cruzi (strain CL Brener)) (UniProt Q4DSP6)     bucket B
 1     CCOC[C@@H]1CCC[C@@]12CN(Cc1nccs1)CCO2  Tyrosyl-tRNA synthetase, putative (Trypanosoma cruzi (strain CL Brener)) (UniProt Q4DSP6)     bucket B
 2  CNS(=O)(=O)c1ccc(CNC(=O)NCC2CCCO2)cc1 (stereo not drawn)  Tyrosyl-tRNA synthetase, putative (Trypanosoma cruzi (strain CL Brener)) (UniProt Q4DSP6)     bucket B
 3  CCc1csc(C2CCCN(C(=O)c3ccnc(N(C)C)c3)C2)n1 (stereo not drawn)  Tyrosyl-tRNA synthetase, putative (Trypanosoma cruzi (strain CL Brener)) (UniProt Q4DSP6)     bucket B
 4   CCn1c(CN2CCCN(C(=O)OC)CC2)nc2c(F)cccc21  Tyrosyl-tRNA synthetase, putative (Trypanosoma cruzi (strain CL Brener)) (UniProt Q4DSP6)     bucket B
 5     Cc1nc(CCNC(=O)NC2CCN(c3ncccn3)CC2)cs1  Tyrosyl-tRNA synthetase, putative (Trypanosoma cruzi (strain CL Brener)) (UniProt Q4DSP6)     bucket C
 6   CC(=O)Nc1nc(C2CCN(C(=O)c3cccnc3)CC2)cs1  Tyrosyl-tRNA synthetase, putative (Trypanosoma cruzi (strain CL Brener)) (UniProt Q4DSP6)     bucket B
 7  CN1CC2(COCCN(C(=O)c3ccco3)C2)OCC1=O (stereo not drawn)  Tyrosyl-tRNA synthetase, putative (Trypanosoma cruzi (strain CL Brener)) (UniProt Q4DSP6)     bucket A
 8                     Cc1ncsc1C(=O)NCCSCCCO  Tyrosyl-tRNA synthetase, putative (Trypanosoma cruzi (strain CL Brener)) (UniProt Q4DSP6)     bucket B
 9  CCCC(NC(=O)c1ccc(OC)cc1F)c1nnn[nH]1 (stereo not drawn)  Tyrosyl-tRNA synthetase, putative (Trypanosoma cruzi (strain CL Brener)) (UniProt Q4DSP6)     bucket A
10  Cc1cnc(N2C[C@H]3C[C@H](C(=O)N(C)C)[C@@H](C2)O3)nc1  Tyrosyl-tRNA synthetase, putative (Trypanosoma cruzi (strain CL Brener)) (UniProt Q4DSP6)     bucket A
11        COCc1cccc(CNCc2c(C)nn(C)c2N(C)C)c1  Tyrosyl-tRNA synthetase, putative (Trypanosoma cruzi (strain CL Brener)) (UniProt Q4DSP6)     bucket C
12  Cc1ccc(N2CCCC(NCc3ccsc3)C2)nn1 (stereo not drawn)  Tyrosyl-tRNA synthetase, putative (Trypanosoma cruzi (strain CL Brener)) (UniProt Q4DSP6)     bucket B
13  CC(=O)N1CCOC(c2cc(N3CC(O)C3)nc(C)n2)C1 (stereo not drawn)  Tyrosyl-tRNA synthetase, putative (Trypanosoma cruzi (strain CL Brener)) (UniProt Q4DSP6)     bucket B
14  NC(=O)C1CN(C(=O)Nc2ccccc2N2CCCCCC2)CCO1 (stereo not drawn)  Tyrosyl-tRNA synthetase, putative (Trypanosoma cruzi (strain CL Brener)) (UniProt Q4DSP6)     bucket B
15             COCCC(=O)Nc1ccnc(Oc2ccccc2)c1  Tyrosyl-tRNA synthetase, putative (Trypanosoma cruzi (strain CL Brener)) (UniProt Q4DSP6)     bucket A
16  Cc1nc(C)n(CC2CCCN2CCCc2ccccc2)n1 (stereo not drawn)  Tyrosyl-tRNA synthetase, putative (Trypanosoma cruzi (strain CL Brener)) (UniProt Q4DSP6)     bucket A
17  COCCN1C[C@@H]2CCCO[C@@H]2[C@H](N(C)Cc2ccco2)C1  Tyrosyl-tRNA synthetase, putative (Trypanosoma cruzi (strain CL Brener)) (UniProt Q4DSP6)     bucket B
18  CCN1C(=O)C2(CCOCC2)c2cc(NC(=O)c3ccco3)ccc21  Tyrosyl-tRNA synthetase, putative (Trypanosoma cruzi (strain CL Brener)) (UniProt Q4DSP6)     bucket B
19        Cn1cnc2c1CCN(Cc1nc(-c3ccsc3)no1)C2  Tyrosyl-tRNA synthetase, putative (Trypanosoma cruzi (strain CL Brener)) (UniProt Q4DSP6)     bucket C
20  COc1ccc(Br)c(C(=O)NCCNc2ccc(C(F)(F)F)cn2)c1  Tyrosyl-tRNA synthetase, putative (Trypanosoma cruzi (strain CL Brener)) (UniProt Q4DSP6)     bucket C
21  CCS(=O)(=O)c1ccccc1C(=O)NCc1ccnc(N(C)C)c1  Tyrosyl-tRNA synthetase, putative (Trypanosoma cruzi (strain CL Brener)) (UniProt Q4DSP6)     bucket C
22  O=C1CCC2(CCN(c3ncc(F)cn3)CC2)N1CCN1CCCC1  Tyrosyl-tRNA synthetase, putative (Trypanosoma cruzi (strain CL Brener)) (UniProt Q4DSP6)     bucket A
23       Cn1cccc1C(=O)N1CCc2ncnc(C3CC3)c2CC1  Tyrosyl-tRNA synthetase, putative (Trypanosoma cruzi (strain CL Brener)) (UniProt Q4DSP6)     bucket A
24  CNC(=O)NC(=O)CN1CCC(c2c[nH]c3ccc(OC)cc23)CC1  Tyrosyl-tRNA synthetase, putative (Trypanosoma cruzi (strain CL Brener)) (UniProt Q4DSP6)     bucket B
25  Cc1ccc(CN2C[C@@H]3COC[C@@H](NS(C)(=O)=O)[C@@H]3C2)o1  Tyrosyl-tRNA synthetase, putative (Trypanosoma cruzi (strain CL Brener)) (UniProt Q4DSP6)     bucket B
26  CCS(=O)(=O)CCN1CCCC1c1noc(C2CC2)n1 (stereo not drawn)  Tyrosyl-tRNA synthetase, putative (Trypanosoma cruzi (strain CL Brener)) (UniProt Q4DSP6)     bucket A
27  O=C(c1cccc2c1OCO2)N1CCCC(n2cccn2)C1 (stereo not drawn)  Tyrosyl-tRNA synthetase, putative (Trypanosoma cruzi (strain CL Brener)) (UniProt Q4DSP6)     bucket A
28    CC(C)N(C)Cc1nnc2n1CCCN(C(=O)c1ccco1)C2  Tyrosyl-tRNA synthetase, putative (Trypanosoma cruzi (strain CL Brener)) (UniProt Q4DSP6)     bucket B
29  CCOC(CC)C(=O)NCCC(=O)N1CCN(c2ccccn2)CC1 (stereo not drawn)  Tyrosyl-tRNA synthetase, putative (Trypanosoma cruzi (strain CL Brener)) (UniProt Q4DSP6)     bucket A
30  CC1c2ncc(COc3cccnc3)n2CCN1C(=O)C1=CCCC1 (stereo not drawn)  Tyrosyl-tRNA synthetase, putative (Trypanosoma cruzi (strain CL Brener)) (UniProt Q4DSP6)     bucket B
31  Cc1cc(C(=O)N2CCCC(n3ccnc3C)C2)c(C)s1 (stereo not drawn)  Tyrosyl-tRNA synthetase, putative (Trypanosoma cruzi (strain CL Brener)) (UniProt Q4DSP6)     bucket A
32    O=S(=O)(c1ccccc1)N1CCCN(CCCn2ccnc2)CC1  Tyrosyl-tRNA synthetase, putative (Trypanosoma cruzi (strain CL Brener)) (UniProt Q4DSP6)     bucket A
33         CCOc1ccc(NC(=O)NCc2csc(NC)n2)cc1C  Tyrosyl-tRNA synthetase, putative (Trypanosoma cruzi (strain CL Brener)) (UniProt Q4DSP6)     bucket C
34  CC1CCCN(CCNC(=O)c2cncnc2C(C)C)C1 (stereo not drawn)  Tyrosyl-tRNA synthetase, putative (Trypanosoma cruzi (strain CL Brener)) (UniProt Q4DSP6)     bucket B
35  CSCCNC(=O)c1ccc(OC2CCN(CC(C)(C)C)CC2)c(Cl)c1  Tyrosyl-tRNA synthetase, putative (Trypanosoma cruzi (strain CL Brener)) (UniProt Q4DSP6)     bucket A
36  Cc1noc(CCCC(=O)NC(C)c2ccccn2)n1 (stereo not drawn)  Tyrosyl-tRNA synthetase, putative (Trypanosoma cruzi (strain CL Brener)) (UniProt Q4DSP6)     bucket C
37   CCCN(C)C(=O)c1ccc2c(c1)[nH]c(=O)n2CCOCC  Tyrosyl-tRNA synthetase, putative (Trypanosoma cruzi (strain CL Brener)) (UniProt Q4DSP6)     bucket B
38   Fc1cccc(CN2CCC(c3n[nH]c4ncccc34)CC2)c1F  Tyrosyl-tRNA synthetase, putative (Trypanosoma cruzi (strain CL Brener)) (UniProt Q4DSP6)     bucket B
39        CC(C)(CNC(=O)CCOc1cccc(F)c1)C(N)=O  Tyrosyl-tRNA synthetase, putative (Trypanosoma cruzi (strain CL Brener)) (UniProt Q4DSP6)     bucket B
